# System: U2OS
# test-summary: cell viability relative to DMSO; higher = less toxic
# condition-notes: 72 h; 100 nM
quantity-name: cell viability (%)
Please give a number only; it is taken to be in %.

Query `N#CN=C(NCCCCCCOc1ccc(Cl)cc1)Nc1ccncc1` yields cell viability of 0.1

Query `NC(=O)[C@@H](CCC(F)(F)F)N(Cc1ccc(-c2ncon2)cc1F)S(=O)(=O)c1ccc(Cl)cc1` yields cell viability of 102

Query `Cc1c2oc3c(C)ccc(C(=O)N[C@@H]4C(=O)N[C@H](C(C)C)C(=O)N5CCC[C@H]5C(=O)N(C)CC(=O)N(C)[C@@H](C(C)C)C(=O)O[C@@H]4C)c3nc-2c(C(=O)N[C@@H]2C(=O)N[C@H](C(C)C)C(=O)N3CCC[C@H]3C(=O)N(C)CC(=O)N(C)[C@@H](C(C)C)C(=O)O[C@@H]2C)c(N)c1=O` yields cell viability of 34.2

Query `COc1ccccc1N1CCN(CCCCNC(=O)c2ccc(-c3ccc(C(C)=O)cc3)cc2)CC1` yields cell viability of 102

Query `O=C(Nc1ccccc1)N[C@H]1C[C@H](C(=O)O)Nc2cc(Cl)cc(Cl)c21` yields cell viability of 103

Query `Cc1c(C(=O)NCCCO)cnn1-c1nc(-c2cccc(C(F)(F)F)c2)cs1` yields cell viability of 93.3

Query `CC(=O)N[C@H]1[C@@H](O)[C@H](O)[C@@H](CO)O[C@@H]1O` yields cell viability of 105

Query `O=C1[C@H](CC[C@H](O)c2ccc(F)cc2)[C@@H](c2ccc(O)cc2)N1c1ccc(F)cc1` yields cell viability of 95.8

Query `COc1cc2ncnc(Nc3ccc(Cl)cc3F)c2cc1OC` yields cell viability of 99.4

Query `COc1ccc2cccc(N3CCN(CCNC(=O)c4ccc(F)cc4)CC3)c2c1` yields cell viability of 92.7

Query `Cc1onc(-c2c(Cl)cccc2Cl)c1C(=O)N[C@@H]1C(=O)N2[C@@H]1SC(C)(C)[C@@H]2C(=O)O` yields cell viability of 93.7

Query `O=C1Cc2cc(CCN3CCN(c4nsc5ccccc45)CC3)c(Cl)cc2N1` yields cell viability of 100

Query `C[C@H](N[C@@H](CCc1ccccc1)C(=O)O)C(=O)N1CCC[C@H]1C(=O)O` yields cell viability of 94.9

Query Nc1ncnc2c1ncn2[C@@H]1O[C@H](COP(=O)(O)OP(=O)(O)OP(=O)(O)O)[C@@H](O)[C@H]1O [ADENOSINE TRIPHOSPHATE DISODIUM] yields cell viability of 93.3

Query `C[N+]1(C)CCC(=C(c2ccccc2)c2ccccc2)CC1` yields cell viability of 95.5

Query O=C1NC(=O)C(=Cc2ccc(-c3ccc(F)cc3)o2)S1 (stereo in doubt) yields cell viability of 99.9

Query `Oc1ccc2ccccc2c1SSc1c(O)ccc2ccccc12` yields cell viability of 97.6

Query `CCOc1cc(C(C)(C)C)ccc1C1=N[C@@](C)(c2ccc(Cl)cc2)[C@@](C)(c2ccc(Cl)cc2)N1C(=O)N1CCN(CCCS(C)(=O)=O)CC1` yields cell viability of 96.9

Query `COc1ccc2c(C)nc(Nc3nc(C)c(C)c(O)n3)nc2c1` yields cell viability of 102

Query `Cc1ccc(-n2nc(C(C)(C)C)cc2NC(=O)NCc2cc(F)ccc2Oc2ccc3c(cnn3CCO)c2)cc1` yields cell viability of 97.1

Query `CCS(=O)(=O)N1CCC[C@@H]2CN3CCc4cc(OC)ccc4[C@@H]3C[C@@H]21` yields cell viability of 108

Query CC(=O)OCC(=O)NCCCOc1cccc(CN2CCCCC2)c1 [roxatidine-acetate] yields cell viability of 98.7

Query `Cc1cc(C)c(S(=O)(=O)n2cc(C)cc2C)c(C)c1` yields cell viability of 102

Query `Cc1cccc(NC(=O)CN2CCC(c3ccccn3)CC2)c1` yields cell viability of 94.7

Query C[C@@H]1NC(=O)[C@@H]2CCCN2C(=O)[C@H](CC(N)=O)NC(=O)[C@@H]2CSSC[C@H](N)C(=O)N[C@H]3CSSC[C@H](NC1=O)C(=O)N[C@@H]([C@@H](C)O)C(=O)NCC(=O)N[C@H](C(=O)N[C@@H](Cc1ccc(O)cc1)C(=O)O)CSSC[C@H](NC(=O)[C@H](Cc1ccc(O)cc1)NC(=O)[C@H](CCC(=O)O)NC3=O)C(=O)N2 [linaclotide] yields cell viability of 97.3

Query `Cc1noc(C)c1-c1cc(O)cc([C@@H](O)c2ccccc2)c1` yields cell viability of 99.7

Query `O=c1cc[nH]c(=S)[nH]1` yields cell viability of 99.7

Query `O[C@@H](C[C@H]1c2ccccc2-c2cncn21)C1CCCCC1` yields cell viability of 94

Query `CC[C@@H](Nc1c(Nc2cccc(C(=O)N(C)C)c2O)c(=O)c1=O)c1ccc(C)o1` yields cell viability of 98.3

Query COc1ccc(COc2cc3oc(=O)c4cc(C(C)O)ccc4c3cc2OC)cc1 (stereo unspecified) yields cell viability of 94.4

Query CC1CC(OC(=O)C(O)c2ccccc2)CC(C)(C)C1 (stereo unspecified) [cyclandelate] yields cell viability of 97.5
